Molecular target: UniProt O14965
Sequence (O14965 whole entry): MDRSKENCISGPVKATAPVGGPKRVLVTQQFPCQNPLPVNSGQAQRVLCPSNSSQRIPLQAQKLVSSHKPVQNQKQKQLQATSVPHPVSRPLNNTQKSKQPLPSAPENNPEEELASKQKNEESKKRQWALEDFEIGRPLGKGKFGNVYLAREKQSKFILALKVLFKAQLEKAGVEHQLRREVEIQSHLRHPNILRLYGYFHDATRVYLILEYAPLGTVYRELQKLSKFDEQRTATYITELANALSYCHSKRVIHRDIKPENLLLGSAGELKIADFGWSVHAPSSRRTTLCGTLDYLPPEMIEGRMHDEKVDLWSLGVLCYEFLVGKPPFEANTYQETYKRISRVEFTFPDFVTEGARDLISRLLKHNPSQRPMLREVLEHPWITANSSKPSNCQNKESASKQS
Assay: Inhibition of AURA (unknown origin) at 30 uM by microfluidic mobility shift assay relative to control
Kind request: treat 70% as inclusive, so inhibition at 70% or higher is label 1, anything lower is label 0.

Answered cases to consult:
molecule=O=S(=O)(c1cccc2cnccc12)N1CCCC12CCNCC2 label="label 0"
molecule="O=S(=O)(c1cccc2cnccc12)N1CCC2(CC1)CC(O)CCN2 (racemic)" label="label 0"
molecule="O=S(=O)(c1cccc2cnccc12)N1CCC2(CCC(O)CN2)CC1 (racemic)" label="label 1"
molecule=c1nc(N2CCC3(CCCOC3)CC2)c2nc[nH]c2n1 label="label 0"
molecule="OCC1CCC2(CCN(c3ncnc4[nH]cnc34)CC2)NC1 (racemic)" label="label 1"

Note: attention shifts to another entry.
Input: Dear colleague, could you confirm whether O=S(=O)(c1cccc2cnccc12)N1CCC2(CCCN2)CC1 has inhibition at or above 70%?
Output: label 0
